experimental_target: Androgen receptor/Baculoviral IAP repeat-containing protein 2 (Homo sapiens, UniProt P10275+Q13490)
Sequence (P10275 whole entry): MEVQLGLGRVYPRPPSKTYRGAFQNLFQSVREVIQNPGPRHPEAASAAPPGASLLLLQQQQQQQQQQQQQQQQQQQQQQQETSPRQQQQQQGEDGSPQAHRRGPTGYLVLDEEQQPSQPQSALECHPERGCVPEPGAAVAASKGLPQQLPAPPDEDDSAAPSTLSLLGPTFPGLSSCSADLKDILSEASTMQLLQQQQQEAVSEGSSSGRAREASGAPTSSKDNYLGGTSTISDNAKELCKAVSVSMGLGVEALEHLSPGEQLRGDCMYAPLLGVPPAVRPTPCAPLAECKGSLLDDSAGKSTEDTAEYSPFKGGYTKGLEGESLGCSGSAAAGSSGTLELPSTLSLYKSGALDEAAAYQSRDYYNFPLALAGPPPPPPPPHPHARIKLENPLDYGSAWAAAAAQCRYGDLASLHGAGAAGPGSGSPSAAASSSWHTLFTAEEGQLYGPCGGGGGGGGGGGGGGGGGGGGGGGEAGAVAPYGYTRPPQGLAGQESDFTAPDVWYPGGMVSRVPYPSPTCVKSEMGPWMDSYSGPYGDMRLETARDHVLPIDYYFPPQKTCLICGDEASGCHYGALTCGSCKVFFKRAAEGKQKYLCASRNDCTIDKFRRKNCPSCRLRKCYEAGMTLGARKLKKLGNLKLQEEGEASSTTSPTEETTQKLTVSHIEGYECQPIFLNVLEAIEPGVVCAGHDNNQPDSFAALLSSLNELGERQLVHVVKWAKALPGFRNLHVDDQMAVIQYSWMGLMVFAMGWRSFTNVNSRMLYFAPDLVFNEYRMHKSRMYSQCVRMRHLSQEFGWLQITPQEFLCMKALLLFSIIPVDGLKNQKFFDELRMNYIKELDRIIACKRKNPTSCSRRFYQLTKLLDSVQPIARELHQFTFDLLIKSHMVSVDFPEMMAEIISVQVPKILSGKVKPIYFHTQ
Sequence (Q13490 whole entry): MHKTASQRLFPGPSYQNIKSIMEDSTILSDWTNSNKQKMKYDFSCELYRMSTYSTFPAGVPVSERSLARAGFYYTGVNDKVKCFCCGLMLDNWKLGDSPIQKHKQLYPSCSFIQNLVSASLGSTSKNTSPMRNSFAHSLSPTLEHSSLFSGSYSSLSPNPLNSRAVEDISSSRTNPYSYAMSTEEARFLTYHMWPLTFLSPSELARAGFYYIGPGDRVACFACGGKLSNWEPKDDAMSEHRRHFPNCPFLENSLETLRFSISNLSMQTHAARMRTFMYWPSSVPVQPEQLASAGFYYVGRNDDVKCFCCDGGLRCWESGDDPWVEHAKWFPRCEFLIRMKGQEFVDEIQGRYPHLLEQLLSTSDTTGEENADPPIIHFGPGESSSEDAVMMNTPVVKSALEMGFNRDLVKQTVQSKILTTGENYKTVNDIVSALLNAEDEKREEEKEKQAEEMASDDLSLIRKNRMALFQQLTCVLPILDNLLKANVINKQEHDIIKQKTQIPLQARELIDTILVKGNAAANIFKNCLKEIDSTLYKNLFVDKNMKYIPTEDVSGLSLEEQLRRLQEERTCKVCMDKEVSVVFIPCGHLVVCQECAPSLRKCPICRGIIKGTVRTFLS
test_summary: Induction of AR/cIAP1 interaction in human 22Rv1 cells assessed as ubiquitin proteasome system mediated androgen receptor protein degradation by Western blot analysis
Listed here: items and their measured DC50.
endpoint_name: DC50 (µM)

[[record]]
compound = "Cc1nn(-c2ccc(C#N)c(C(F)(F)F)c2)c(C)c1Cc1ccc(C(=O)NCCOCCOCCOCCNC(=O)[C@H](CC(C)C)NC(=O)[C@@H](O)[C@H](N)Cc2ccccc2)cc1"
relation_symbol = "="
result_number = 11.7

[[record]]
compound = "Cc1nn(-c2ccc(C#N)cc2Cl)c(C)c1Cc1ccc(C(=O)NCCOCCOCCOCCNC(=O)[C@H](CC(C)C)NC(=O)[C@@H](O)[C@H](N)Cc2ccccc2)cc1"
relation_symbol = ">"
result_number = 30

[[record]]
compound = "CC(C)C[C@H](NC(=O)[C@@H](O)[C@H](N)Cc1ccccc1)C(=O)NCCOCCOCCOCCNC(=O)c1ccc(S(=O)(=O)CC(C)(O)C(=O)Nc2ccc(C#N)c(C(F)(F)F)c2)cc1 (stereo not given in full)"
relation_symbol = ">"
result_number = 30

[[record]]
compound = "Cc1nn(-c2ccc(C#N)c(Cl)c2)c(C)c1CCc1ccc(C(=O)NCCOCCOCCOCCNC(=O)[C@H](CC(C)C)NC(=O)[C@@H](O)[C@H](N)Cc2ccccc2)cc1"
relation_symbol = "="
result_number = 20.5

[[record]]
compound = "Cc1c(C#N)c(-c2ccc(C#N)cc2)c(C)n1Cc1ccc(C(=O)NCCOCCOCCOCCNC(=O)[C@H](CC(C)C)NC(=O)[C@@H](O)[C@H](N)Cc2ccccc2)cc1"
relation_symbol = "="
result_number = 21.6

